Here the recorded pIC50 is given for each entry.
# studySystem: recombinant N-terminal GST-tagged human Rho kinase 2 (ROCK2, amino acids 1-552) (Homo sapiens, UniProt O75116)
# Construct: human Rho kinase 2 (ROCK2, amino acids 1-552, Invitrogen Inc)
# Sequence (O75116 1-552): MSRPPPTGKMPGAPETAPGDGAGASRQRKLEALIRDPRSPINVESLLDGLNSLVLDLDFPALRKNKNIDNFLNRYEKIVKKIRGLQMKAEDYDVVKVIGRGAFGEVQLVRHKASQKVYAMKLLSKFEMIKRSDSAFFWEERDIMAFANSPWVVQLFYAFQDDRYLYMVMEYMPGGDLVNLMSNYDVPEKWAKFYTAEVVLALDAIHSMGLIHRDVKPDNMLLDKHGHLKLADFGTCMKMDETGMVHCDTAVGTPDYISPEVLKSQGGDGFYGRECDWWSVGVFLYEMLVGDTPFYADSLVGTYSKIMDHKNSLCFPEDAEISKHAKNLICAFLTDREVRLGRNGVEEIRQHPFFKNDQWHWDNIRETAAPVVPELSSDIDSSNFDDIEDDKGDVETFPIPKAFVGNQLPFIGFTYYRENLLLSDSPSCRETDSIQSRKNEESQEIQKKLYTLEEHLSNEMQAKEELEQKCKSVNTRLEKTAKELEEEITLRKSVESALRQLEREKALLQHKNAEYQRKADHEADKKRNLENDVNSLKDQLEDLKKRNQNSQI
# testDetails: In vitro Rho kinase assay (luciferase-based ATP consumption), ROCK2
# cond: 3 μM ATP, S6 peptide substrate, 30° C. for 2 hours; read-out: ROCK 2 IC50
pIC50: −log10 of the molar value.
quantity: pIC50

1) Cc1cc(C)c2c(N)c(C(N)=O)sc2n1; ≥ 5.30
2) CC(OC(=O)c1ccc(O)cc1)C(=O)Nc1ccc(Cl)c(Cl)c1 (stereo not drawn); ≥ 5.30
3) CC(C)c1cc2cc(/C=C/C(=O)O)c(O)cc2o1; ≥ 5.30

###

# studySystem: recombinant N-terminal GST-tagged human Rho kinase 2 (ROCK2, amino acids 1-552) (Homo sapiens, UniProt O75116)
# Construct: human Rho kinase 2 (ROCK2, amino acids 1-552, Invitrogen Inc)
# testDetails: In vitro Rho kinase assay (luciferase-based ATP consumption), ROCK2
# cond: 3 μM ATP, S6 peptide substrate, 30° C. for 2 hours; read-out: ROCK 2 IC50
quantity: IC50

1) C=CCN(CC=C)S(=O)(=O)c1ccc2nc(N)sc2c1 [Example 9]; ≤ 5 µM
2) C=CCc1cccc2cc(C(N)=O)c(=N)oc12 [Example 1]; ≤ 5 µM
3) CSc1nc(-c2ccncc2)nc(N)c1C#N [Example 5]; ≤ 5 µM
4) O=C1NC(=Cc2ccc(O)c(Br)c2)C(=O)N1Cc1ccccc1F [Example 11]; ≤ 5 µM
5) CC(CCc1ccc(O)cc1)Nc1ccc2[nH]ncc2c1 (stereo not shown) [Example 7]; > 5 µM
6) CC(C)(CO)CNc1nc(-c2ccncc2)cnc1N [Example 6]; ≤ 5 µM
7) Clc1ccc(Cn2cc(-c3ccncc3)cn2)c(Cl)c1 [Example 15]; ≤ 5 µM
8) CN(C)CCN(Cc1ccccc1)Cc1cc(-c2ccnc3cc(Cl)ccc23)ccc1O [Example 4]; ≤ 5 µM
9) CCOC(=O)c1nnn(-c2nonc2N)c1-c1ccccc1Cl [Example 12]; > 5 µM
10) CC1CCC(C(=O)NC(C(=O)Nc2ccncc2)C(C)C)CC1 (stereo not shown) [Example 13]; ≤ 5 µM

###

# studySystem: recombinant N-terminal GST-tagged human Rho kinase 1 (ROCK1, amino acids 1-535) (Homo sapiens, UniProt Q13464)
# Construct: human Rho kinase 1 (ROCK1, amino acids 1-535, Invitrogen Inc)
# Sequence (Q13464 1-535): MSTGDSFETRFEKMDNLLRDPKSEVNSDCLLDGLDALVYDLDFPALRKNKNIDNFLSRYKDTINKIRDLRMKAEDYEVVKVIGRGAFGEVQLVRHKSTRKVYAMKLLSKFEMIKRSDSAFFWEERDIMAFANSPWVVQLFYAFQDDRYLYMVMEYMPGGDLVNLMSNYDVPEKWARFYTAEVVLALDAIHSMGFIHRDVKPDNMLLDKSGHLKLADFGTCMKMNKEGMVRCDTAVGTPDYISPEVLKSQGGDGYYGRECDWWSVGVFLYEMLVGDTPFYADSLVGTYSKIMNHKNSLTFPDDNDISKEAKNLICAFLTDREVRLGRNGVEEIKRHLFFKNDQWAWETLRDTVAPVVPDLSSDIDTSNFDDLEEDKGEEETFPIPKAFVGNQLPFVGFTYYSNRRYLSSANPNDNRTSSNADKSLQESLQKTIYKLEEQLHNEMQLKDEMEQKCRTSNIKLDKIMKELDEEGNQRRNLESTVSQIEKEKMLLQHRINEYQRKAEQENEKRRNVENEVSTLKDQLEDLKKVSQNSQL
# testDetails: In vitro Rho kinase assay (luciferase-based ATP consumption), ROCK1
# cond: 3 μM ATP, S6 peptide substrate, 30° C. for 2 hours; read-out: ROCK 1 IC50
pIC50: −log10 of the molar value.
quantity: pIC50

1. CC(C)c1cc2cc(/C=C/C(=O)O)c(O)cc2o1; ≥ 5.30
2. CC(OC(=O)c1ccc(O)cc1)C(=O)Nc1ccc(Cl)c(Cl)c1 (stereo not shown); ≥ 5.30
3. O=C1NC(=Cc2ccc(O)c(Br)c2)C(=O)N1Cc1ccccc1F; ≥ 5.30
4. CCOC(=O)c1nnn(-c2nonc2N)c1-c1ccccc1Cl; < 5.30
5. CC(C)(CO)CNc1nc(-c2ccncc2)cnc1N; ≥ 5.30
6. C=CCN(CC=C)S(=O)(=O)c1ccc2nc(N)sc2c1; ≥ 5.30
7. C=CCc1cccc2cc(C(N)=O)c(=N)oc12; ≥ 5.30
8. CC1CCC(C(=O)NC(C(=O)Nc2ccncc2)C(C)C)CC1 (stereo not shown); ≥ 5.30
9. Cc1cc(=O)oc2cc(OC(C)C(=O)Nc3nccs3)ccc12 (stereo not shown); < 5.30
10. CSc1nc(-c2ccncc2)nc(N)c1C#N; ≥ 5.30

###

# studySystem: recombinant N-terminal GST-tagged human Rho kinase 1 (ROCK1, amino acids 1-535) (Homo sapiens, UniProt Q13464)
# Construct: human Rho kinase 1 (ROCK1, amino acids 1-535, Invitrogen Inc)
# testDetails: In vitro Rho kinase assay (luciferase-based ATP consumption), ROCK1
# cond: 3 μM ATP, S6 peptide substrate, 30° C. for 2 hours; read-out: ROCK 1 IC50
quantity: IC50

1) Clc1ccc(Cn2cc(-c3ccncc3)cn2)c(Cl)c1; ≤ 5 µM
2) CC(CCc1ccc(O)cc1)Nc1ccc2[nH]ncc2c1 (stereo not shown); ≤ 5 µM
3) CN(C)CCN(Cc1ccccc1)Cc1cc(-c2ccnc3cc(Cl)ccc23)ccc1O; > 5 µM
4) Cc1cc(C)c2c(N)c(C(N)=O)sc2n1; ≤ 5 µM

Data origin, for the record: patent US20090318485A1
